Tested on: Rattus norvegicus
Assay: Antipyretic activity in Wistar rat assessed as reduction in Brewer's yeast-induced hyperthermia measured as rectal temperature at 60 mg/kg, po administered 18 hrs post challenge measured after 3 hrs post dose (reference value: 39.400 +/- 0.071 degC)
Type: functional

{"columns": ["MOLECULE", "T, °C"],
 "data": [
  ["CC1C(=O)CC(c2ccc(Cl)cc2)N(C(=O)CCl)C1c1ccc(O)cc1 (stereo not given)", 37.14],
  ["COc1ccc(C2C(C)C(=O)CC(c3ccc(F)cc3)N2C(=O)CCl)cc1 (stereo not given)", 37.2],
  ["CC1C(=O)CC(c2ccc(F)cc2)N(C(=O)CN2CCN(C)CC2)C1c1ccc(Cl)cc1 (stereo not given)", 37.18],
  ["COc1ccc(C2C(C)C(=O)CC(c3ccc(Cl)cc3)N2C(=O)CCl)cc1 (stereo not given)", 37.2],
  ["CC1C(=O)CC(c2ccc(F)cc2)N(C(=O)CCl)C1c1ccc(O)cc1 (stereo not given)", 37.16],
  ["CC1C(=O)CC(c2ccc(F)cc2)N(C(=O)CCl)C1c1ccc(Cl)cc1 (stereo not given)", 37.16],
  ["CC1C(=O)CC(c2ccc(Cl)cc2)N(C(=O)CN2CCN(C)CC2)C1c1ccc(N(C)C)cc1 (stereo not given)", 37.52],
  ["CC1C(=O)CC(c2ccc(Cl)cc2)N(C(=O)CCl)C1c1ccc(N(C)C)cc1 (stereo not given)", 37.86],
  ["COc1ccc(C2C(C)C(=O)CC(c3ccc(Cl)cc3)N2C(=O)CN2CCN(C)CC2)cc1 (stereo not given)", 37.28],
  ["COc1ccc(C2C(C)C(=O)CC(c3ccc(F)cc3)N2C(=O)CN2CCN(C)CC2)cc1 (stereo not given)", 37.1]
]}

###

Assay: Partition co-efficient, log P of the compound in ocatanol-water by shake flask method
Assay type: physicochemical
Details: octanol/water
REPORTED_METRIC: logP

{"columns": ["COMPOUND", "REPORTED_METRIC", "OBSERVED_RESULT"],
 "data": [
  ["COc1ccc(C2C(C)C(=O)CC(c3ccc(Cl)cc3)N2C(=O)CN2CCN(C)CC2)cc1 (stereo not given)", "logP", 1.48],
  ["CC1C(=O)CC(c2ccc(Cl)cc2)N(C(=O)CCl)C1c1ccc(O)cc1 (stereo not given)", "logP", 1.05],
  ["CC1C(=O)CC(c2ccc(Cl)cc2)N(C(=O)CN2CCN(C)CC2)C1c1ccc(N(C)C)cc1 (stereo not given)", "logP", 1.35],
  ["CC1C(=O)CC(c2ccc(F)cc2)N(C(=O)CCl)C1c1ccc(Cl)cc1 (stereo not given)", "logP", 1.72],
  ["CC1C(=O)CC(c2ccc(F)cc2)N(C(=O)CCl)C1c1ccc(O)cc1 (stereo not given)", "logP", 1.14],
  ["COc1ccc(C2C(C)C(=O)CC(c3ccc(Cl)cc3)N2C(=O)CCl)cc1 (stereo not given)", "logP", 1.29],
  ["COc1ccc(C2C(C)C(=O)CC(c3ccc(F)cc3)N2C(=O)CCl)cc1 (stereo not given)", "logP", 1.42],
  ["CC1C(=O)CC(c2ccc(F)cc2)N(C(=O)CN2CCN(C)CC2)C1c1ccc(Cl)cc1 (stereo not given)", "logP", 2.09],
  ["CC1C(=O)CC(c2ccc(Cl)cc2)N(C(=O)CCl)C1c1ccc(N(C)C)cc1 (stereo not given)", "logP", 1.24],
  ["COc1ccc(C2C(C)C(=O)CC(c3ccc(F)cc3)N2C(=O)CN2CCN(C)CC2)cc1 (stereo not given)", "logP", 1.53]
]}
